- System: P388 leukemia ip, CD2F1 mice, survival T/C
- protocol-notes: NCI In Vivo Anticancer Drug Screen. Data for tumor model P388 Leukemia (intraperitoneal) in CD2F1 (CDF1) mice
- assay-conditions: endpoint: median survival time; dose: 12.5 mg/kg/injection; schedule: Q01DX009 (ip); vehicle: saline
Toxic doses and inconclusive results are not listed. The calls were made as follows: active = survival T/C of 150% or more; inactive = T/C below 125% in these data.
Outcomes: active, inactive

                           molecule  answer_label
0          CCCCCCCCCCCCCCCCN1CCSCC1      inactive
1              CC(C)NNC(=O)c1ccncc1      inactive
2     CCCCCCCCCCCCCCCC[N+](C)(C)CCN      inactive
3                   CCCOc1cncc(C)n1      inactive
4  O=P(N1CC1)(N1CC1)N1CC2CCC(CC2)C1        active
5  C=CCOCC1CO1 (stereo unspecified)      inactive

###

- System: P388 leukemia ip, CD2F1 mice, survival T/C
- protocol-notes: NCI In Vivo Anticancer Drug Screen. Data for tumor model P388 Leukemia (intraperitoneal) in CD2F1 (CDF1) mice
- assay-conditions: endpoint: median survival time; dose: 240.0 mg/kg/injection; schedule: Q01DX005 (ip); vehicle: Klucel (hydroxypropylcellulose) (HPC); higher = longer survival
Inconclusive results and toxic doses are left out.
Each entry below carries its reported T/C.
readout: T/C

                                    compound    value_measured
 0  CCOC(=O)C1C(c2ccc(N(C)C)cc2)c2cc3c(cc2OC1(C)N1CCCC1)OCO3 (centres undefined)   93 % of control
 1  O=C1OC2(c3ccc(O)cc3Oc3cc(O)ccc32)C2C3C=CC(C3)C12 (centres undefined)  100 % of control
 2  CCOC(=O)CCC(=O)Oc1cccc2c1C(=O)c1c(O)cccc1C2=O   97 % of control
 3            Cc1cc2c(c(O)cc(=O)n2C)c(=O)n1C   91 % of control
 4  O=C(O)c1ccc(-c2c3ccc(=O)cc-3oc3cc(O)ccc23)cc1  100 % of control
 5  CC(C)COCC1COC2(OCC(C)(C)C2OC(=O)Nc2ccccc2)O1 (centres undefined)   91 % of control
 6              CCCCNC=C1C(=O)Nc2ccccc2NC1=O   91 % of control
 7  c1cncc(-c2cc(-c3cc(-c4cccnc4)n[nH]3)[nH]n2)c1   91 % of control
 8  O=S1Nc2ccccc2[C@H]2[C@@H]1[C@H]1O[C@@H]2c2ccccc21 (some centres undefined)  101 % of control
 9      O=C(O)C(Nc1ccccn1)(c1ccccc1)c1ccccc1   98 % of control
10                   N#Cc1c(Cl)cccc1N1CCSCC1  100 % of control
11             Cc1ccc(N=Nc2c(C)noc2C)c(Br)c1   92 % of control
12  Nc1nc(SCC(=O)O)[nH]c(=O)c1NS(=O)(=O)c1ccc([N+](=O)[O-])cc1  102 % of control
13           O=C1CN=C(c2ccccc2)N(c2ccccc2)N1  103 % of control

###

- Tested on: P388 leukemia ip, CD2F1 mice, survival T/C
- protocol-notes: NCI In Vivo Anticancer Drug Screen. Data for tumor model P388 Leukemia (intraperitoneal) in CD2F1 (CDF1) mice
- assay-conditions: endpoint: median survival time; dose: 200.0 mg/kg/injection; schedule: Q04DX002 (ip); vehicle: Klucel (hydroxypropylcellulose) (HPC); higher = longer survival
Toxic doses and inconclusive results are not listed.
Each entry below carries its reported T/C.
readout: T/C

In [3]: df
Out[3]:
                                   compound                               system_name    value_measured
0  C/C(=N\NC(=S)NNC(=S)N1CCCc2ccccc21)c1ccccn1  P388 leukemia ip, CD2F1 mice, survival T/C  115 % of control
1  C/C(=N/NC(=O)c1ccccc1)C(=O)OC(=NC1CCCCC1)NC1CCCCC1  P388 leukemia ip, CD2F1 mice, survival T/C   95 % of control
2  O=C1SC(Nc2ccc(Br)cc2)/C(=N\N=C2/C(Nc3ccc(Br)cc3)SC(=O)N2Cc2ccccc2)N1Cc1ccccc1 (configuration not stated)  P388 leukemia ip, CD2F1 mice, survival T/C   91 % of control
3  C=C(C(=O)N(C(C)C)C(C)C)C(C)CC(C)C(=O)N(C(C)C)C(C)C (configuration not stated)  P388 leukemia ip, CD2F1 mice, survival T/C  107 % of control
4  CCNC(=O)CCC(NS(=O)(=O)c1ccc(NC(C)=O)cc1)C(=O)O (configuration not stated)  P388 leukemia ip, CD2F1 mice, survival T/C  107 % of control
5  CNC(=O)c1ccccc1NC(=O)c1ccccc1[N+](=O)[O-]  P388 leukemia ip, CD2F1 mice, survival T/C  107 % of control
6                     C=C(C)c1nc(N)nc(NC)n1  P388 leukemia ip, CD2F1 mice, survival T/C  107 % of control

###

- Tested on: P388 leukemia ip, CD2F1 mice, survival T/C
- protocol-notes: NCI In Vivo Anticancer Drug Screen. Data for tumor model P388 Leukemia (intraperitoneal) in CD2F1 (CDF1) mice
- assay-conditions: endpoint: median survival time; dose: 100.0 mg/kg/injection; schedule: Q01DX009 (ip); vehicle: saline; higher = longer survival
Inconclusive results and toxic doses are left out.
readout: T/C

                                    compound                               system_name  readout    value_measured
 0  O[P+]1(c2ccccc2)OC(C(F)(F)F)(C(F)(F)F)C(C(F)(F)F)(C(F)(F)F)O1  P388 leukemia ip, CD2F1 mice, survival T/C      T/C   99 % of control
 1                            N#CC1(NO)CCCC1  P388 leukemia ip, CD2F1 mice, survival T/C      T/C   98 % of control
 2    Fc1ccc(N=Cc2ccc(C=Nc3ccc(F)cc3)cc2)cc1  P388 leukemia ip, CD2F1 mice, survival T/C      T/C  100 % of control
 3                              CCCOCC(=O)OC  P388 leukemia ip, CD2F1 mice, survival T/C      T/C   99 % of control
 4                             CCN(CCCO)CCCO  P388 leukemia ip, CD2F1 mice, survival T/C      T/C   93 % of control
 5  S=C(Nc1ccc(N=Nc2ccccc2)cc1)SCc1ccc(Cl)cc1  P388 leukemia ip, CD2F1 mice, survival T/C      T/C  103 % of control
 6  CC(Nc1cccc(Cl)c1)S(=O)(=O)O (centres undefined)  P388 leukemia ip, CD2F1 mice, survival T/C      T/C  100 % of control
 7                N[N+]1(CCS(N)(=O)=O)CCOCC1  P388 leukemia ip, CD2F1 mice, survival T/C      T/C   91 % of control
 8              Fc1ccc(NC(=S)SCc2ccccc2)cc1F  P388 leukemia ip, CD2F1 mice, survival T/C      T/C  108 % of control
 9                                C=Cn1ccnc1  P388 leukemia ip, CD2F1 mice, survival T/C      T/C   91 % of control
10           COc1ccc(/C=C/c2ccnnc2)c(OC)c1OC  P388 leukemia ip, CD2F1 mice, survival T/C      T/C  105 % of control
11  O=C(Nc1ccc(S(=O)(=O)O)cc1)c1ccc([N+](=O)[O-])cc1  P388 leukemia ip, CD2F1 mice, survival T/C      T/C  100 % of control
12  CC(C)NCC(O)COc1ccccc1C1CC1 (centres undefined)  P388 leukemia ip, CD2F1 mice, survival T/C      T/C  104 % of control
13                     CCCCCCCCCCCC#CC(=O)OC  P388 leukemia ip, CD2F1 mice, survival T/C      T/C  103 % of control

###

- Tested on: P388 leukemia ip, CD2F1 mice, survival T/C
- protocol-notes: NCI In Vivo Anticancer Drug Screen. Data for tumor model P388 Leukemia (intraperitoneal) in CD2F1 (CDF1) mice
- assay-conditions: endpoint: median survival time; dose: 25.0 mg/kg/injection; schedule: Q01DX005 (ip); vehicle: saline with Tween-80; higher = longer survival
Inconclusive results and toxic doses are left out.
Each entry below carries its reported T/C.
readout: T/C

In [3]: df
Out[3]:
                                    compound    value_measured
 0  COc1cccc(C(=O)CCN(C)C(=O)OCc2ccccc2)c1OCc1ccccc1   94 % of control
 1              Cc1cc(=O)[nH]c2c(C)c(N)ccc12   95 % of control
 2             CCN(CC)CCCC(c1ccccc1)c1ccccc1   94 % of control
 3  CN(/N=C/c1ccccc1O)C(=O)Nc1cc(C(F)(F)F)ccc1Cl  100 % of control
 4            CC(=O)C[n+]1cccc(C)c1Sc1ccccc1  101 % of control
 5  CCOC(=O)c1cc(-c2cc(C(=O)OCC)c3ccccc3n2)nc2ccccc12  100 % of control
 6       Nc1ccc2ccc(NS(=O)(=O)N3CCCCC3)cc2c1  108 % of control
 7          Cc1nn(C)c(NC(=O)c2ccccc2O)c1SC#N   93 % of control
 8  CC1OC(OCC2OC(Oc3c(-c4ccc(O)c(O)c4)oc4cc(O)cc(O)c4c3=O)C(O)C(O)C2O)C(O)C(O)C1O (stereo not drawn)   94 % of control
 9  CNC(=O)OCc1c(COC(=O)NC)c2n(c1C)CS(=O)C2 (stereo not drawn)  113 % of control
10  O=S(=O)(OCCCl)c1c(Cl)c(Cl)c(Cl)c(Cl)c1Cl   92 % of control
11  [N-]=[N+]=CC(=O)C1OC1c1ccc2ccccc2c1 (stereo not drawn)   93 % of control
12  CN(C)c1ccnc2c1cnn2C1OC(CO)C(O)C1O (stereo not drawn)   97 % of control
